test system: 628569-122-R-J1-PDC complex spheroid viability; assay: Anticancer human tumor 628569-122-R-J1-PDC patient-derived head and neck squamous carcinoma cell line growth inhibition [CLK]; conditions: curve of first compound; second compound 1 µM;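 further: spheroids exposed to agents for seven days before readout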
pIC50: −log10 of the molar value.
measure-name: pIC50

Q: Quick one: pIC50 for CC(CO)NC(=O)c1cc(-c2ccc(Cl)cc2)nn(-c2cnn(C)c2)c1=O (stereo unspecified) + CN1CCN(c2cc(C(=O)Nc3cc4cc(-c5cnn(C)c5)ccc4cn3)ccn2)CC1 ?
Result: > 7.50

Q: What do you get for CCc1c2c(nc3ccc(O)cc13)-c1cc3c(c(=O)n1C2)COC(=O)[C@]3(O)CC + CN1CCN(c2cc(C(=O)Nc3cc4cc(-c5cnn(C)c5)ccc4cn3)ccn2)CC1 ?
Result: > 8.50

Q: What do you get for CCN1CCN(Cc2ccc(Nc3ncc(F)c(-c4cc(F)c5nc(C)n(C(C)C)c5c4)n3)nc2)CC1 + CNC(=O)c1ccc(Nc2nc(OC3CCCC3)c3c(-c4ccc5nc(C)oc5c4)c[nH]c3n2)c(OC)c1 ?
Result: > 8.50

Q: What do you get for CC1(C)CCC(CN2CCN(c3ccc(C(=O)NS(=O)(=O)c4ccc(NCC5CCOCC5)c([N+](=O)[O-])c4)c(Oc4cnc5[nH]ccc5c4)c3)CC2)=C(c2ccc(Cl)cc2)C1 + CN1CCN(c2cc(C(=O)Nc3cc4cc(-c5cnn(C)c5)ccc4cn3)ccn2)CC1 ?
Result: > 7.50

Q: What do you get for CCc1c2c(nc3ccc(O)cc13)-c1cc3c(c(=O)n1C2)COC(=O)[C@]3(O)CC + CNC(=O)c1ccc(Nc2nc(OC3CCCC3)c3c(-c4ccc5nc(C)oc5c4)c[nH]c3n2)c(OC)c1 ?
Result: > 8.50

Q: What do you get for O=c1[nH]cc(F)c(=O)[nH]1 + CNC(=O)c1ccc(Nc2nc(OC3CCCC3)c3c(-c4ccc5nc(C)oc5c4)c[nH]c3n2)c(OC)c1 ?
Result: > 7.50

Q: What do you get for C=CC(=O)N1CCN(c2nc(=O)n(-c3c(C)ccnc3C(C)C)c3nc(-c4c(O)cccc4F)c(F)cc23)C(C)C1 (stereo unspecified) + CNC(=O)c1ccc(Nc2nc(OC3CCCC3)c3c(-c4ccc5nc(C)oc5c4)c[nH]c3n2)c(OC)c1 ?
Result: > 7.50

Q: What do you get for C=C(F)C(=O)N1CCN(c2nc(OCC3CCCN3C)nc3c2CCN(c2cccc4cccc(Cl)c24)C3)CC1CC#N (stereo unspecified) + CNC(=O)c1ccc(Nc2nc(OC3CCCC3)c3c(-c4ccc5nc(C)oc5c4)c[nH]c3n2)c(OC)c1 ?
Result: 7.50

Q: What do you get for O=C(c1cc(Cc2n[nH]c(=O)c3ccccc23)ccc1F)N1CCN(C(=O)C2CC2)CC1 + CNC(=O)c1ccc(Nc2nc(OC3CCCC3)c3c(-c4ccc5nc(C)oc5c4)c[nH]c3n2)c(OC)c1 ?
Result: > 7.50

Q: What do you get for COc1c(OCCCN2CCOCC2)ccc2c3n(c(=NC(=O)c4cnc(N)nc4)nc12)CCN3 + CN1CCN(c2cc(C(=O)Nc3cc4cc(-c5cnn(C)c5)ccc4cn3)ccn2)CC1 ?
Result: > 8.50

Q: What do you get for Nc1ccccc1NC(=O)c1ccc(CNC(=O)OCc2cccnc2)cc1 + CNC(=O)c1ccc(Nc2nc(OC3CCCC3)c3c(-c4ccc5nc(C)oc5c4)c[nH]c3n2)c(OC)c1 ?
Result: 6.74

Q: What do you get for CC(C)CC(NC(=O)C(Cc1ccccc1)NC(=O)c1cnccn1)B(O)O (stereo unspecified) + CNC(=O)c1ccc(Nc2nc(OC3CCCC3)c3c(-c4ccc5nc(C)oc5c4)c[nH]c3n2)c(OC)c1 ?
Result: > 9.02

Q: What do you get for O=C(c1cc(Cc2n[nH]c(=O)c3ccccc23)ccc1F)N1CCN(C(=O)C2CC2)CC1 + CN1CCN(c2cc(C(=O)Nc3cc4cc(-c5cnn(C)c5)ccc4cn3)ccn2)CC1 ?
Result: > 7.50

Q: What do you get for CC(=O)O[C@H]1C(=O)[C@@]2(C)[C@H]([C@H](OC(=O)c3ccccc3)[C@]3(O)C[C@H](OC(=O)[C@H](O)[C@@H](NC(=O)c4ccccc4)c4ccccc4)C(C)=C1C3(C)C)[C@]1(OC(C)=O)CO[C@@H]1C[C@@H]2O + CNC(=O)c1ccc(Nc2nc(OC3CCCC3)c3c(-c4ccc5nc(C)oc5c4)c[nH]c3n2)c(OC)c1 ?
Result: > 7.50

Q: What do you get for NC(=O)C(=Cn1cnc(-c2cc(C(F)(F)F)cc(C(F)(F)F)c2)n1)c1cncnc1 + CN1CCN(c2cc(C(=O)Nc3cc4cc(-c5cnn(C)c5)ccc4cn3)ccn2)CC1 ?
Result: > 8.02

Q: What do you get for Nc1ccccc1NC(=O)c1ccc(CNC(=O)OCc2cccnc2)cc1 + CN1CCN(c2cc(C(=O)Nc3cc4cc(-c5cnn(C)c5)ccc4cn3)ccn2)CC1 ?
Result: > 7.50
